B1: glmS ribozyme (parent)
chain: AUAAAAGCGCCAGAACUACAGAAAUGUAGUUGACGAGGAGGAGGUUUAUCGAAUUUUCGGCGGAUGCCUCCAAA

Variants of: B1
assayOverview: self-cleavage kobs at 10000 uM GlcN6P; higher = faster cleavage; RNA array
conditionNotes: with glucosamine-6-phosphate
Fewer inactive variants are shown than the library holds.
property: self-cleavage kobs at 10000 uM GlcN6P

QUERY: Entry C8G C10G C70G : reported self-cleavage kobs at 10000 uM GlcN6P = ?
RESULT: < 1e-05 s⁻¹
